Assay Text: Further studies of deposits, serum and vitreous concentration after intravitreal injection (Example 3)
Assay type: in vivo, Cynomolgus monkeys
Experimental Setup: cynomolgus monkey, other: intravitreal injection; Cynomolgus vitreous, concentrations too low to form a deposit; read-out: T1/2 of clearance from the vitreous (converted)
Property Measured: half-life

# return recorded half-life for entry CC[C@H](C)[C@H](NC(C)=O)C(=O)N[C@H]1CSSC[C@@H](C(=O)N[C@H](C(N)=O)[C@@H](C)O)NC(=O)[C@H](CCCNC(=N)N)NC(=O)[C@H](Cc2cnc[nH]2)NC(=O)[C@H](C)NC(=O)CNC(=O)[C@H](Cc2c[nH]c3ccccc23)NC(=O)[C@H](CC(=O)O)NC(=O)[C@H](CCC(N)=O)NC(=O)[C@H](Cc2cn(C)c3ccccc23)NC(=O)[C@H](C(C)C)NC1=O
~22 h
